- Measurement Protocol: Pharmacokinetics (PK) of the compound in rats
- Format: in vivo
- Experimental Parameters: rat, plasma; SD rats, PO 5 mg/kg, n = 3, median; read-out: Tmax po (time to maximum plasma concentration)
- Description: Experimental Example 3: Pharmacokinetics (PK) of the Compound in Rats […] The concentration was calculated by Analyst 1.6.3 from AB Sciex. Parameters such as mean, standard deviation and coefficient of variation (excluding those output directly by Analyst 1.6.3) were calculated by Microsoft Excel. PK parameters were calculated by Pharsight Phoenix 6.1 software NCA (Tmax was in median).
Metric: Tmax (h)
Dear colleague, please return just the value in h, with no unit written.

input: Query (compound): `COc1cc(C(=O)N2CCC[C@@H](N)C2)cc2nc(-c3cc4ccsc4n3CC(F)(F)F)n(C)c12` ; field requested: Tmax
output: 8

input: Query (compound): `COc1cc(C(=O)N2CCC[C@@H](N)C2)cc2nc(-c3cc4ccsc4n3CC(C)C)n(C)c12` ; field requested: Tmax
output: 8

input: Query (compound): `CCn1c(-c2nc3cc(C(=O)N4CCC[C@@H](N)C4)cc(OC)c3n2C)cc2cc(C)sc21` ; field requested: Tmax
output: 6

input: Query (compound): `COc1cc(C(=O)N2CCC[C@@H](N)C2)cc2nc(-c3cc4ccsc4n3CC3CCC3)n(C)c12` ; field requested: Tmax
output: 6

input: Query (compound): `COc1cc(C(=O)N2CCC[C@@H](N)C2)cc2nc(-c3cc4cc(C)sc4n3CC3CC3)n(C)c12` ; field requested: Tmax
output: 6

input: Query (compound): `COc1cc(C(=O)N2CCC[C@@H](N)C2)cc2nc(-c3cc4ccsc4n3CC3CC3)n(C)c12` ; field requested: Tmax
output: 6

input: Query (compound): CCn1c(-c2nc3cc(C(=O)N4CCC[C@@H](N)C4)cc(OC)c3n2C)cc2cccnc21 [Compound GSK199, reference compound] ; field requested: Tmax
output: 4

input: Query (compound): `CCn1c(-c2nc3cc(C(=O)N4CCC[C@@H](N)C4)cc(OC)c3n2C)cc2ccsc21` ; field requested: Tmax
output: 6

----------
I'd be grateful if you could share measured half-life at 1 μM for these entries.
- Measurement Protocol: Liver microsomal stability in mouse
- Format: in vitro ADME
- Experimental Parameters: mouse liver microsomes, 0.5 mg protein/mL, 1 μM compound, 37° C.
Dear colleague, please return just the value in h, with no unit written.

input: Query (molecule): COc1cc(C(=O)N2CCC[C@@H](N)C2)cc2nc(-c3cc4ccsc4n3CC3CCC3)n(C)c12 [Compound 22] ; field requested: half-life at 1 μM
output: 2.68

input: Query (molecule): COc1cc(C(=O)N2CCC[C@@H](N)C2)cc2nc(-c3cc4cc(C)sc4n3CC3CC3)n(C)c12 [Compound 23] ; field requested: half-life at 1 μM
output: 3.98

input: Query (molecule): COc1cc(C(=O)N2CCC[C@@H](N)C2)cc2nc(-c3cc4ccsc4n3CC(C)C)n(C)c12 [Compound 20] ; field requested: half-life at 1 μM
output: 11.6

input: Query (molecule): COc1cc(C(=O)N2CCC[C@@H](N)C2)cc2nc(-c3cc4ccsc4n3CC3CC3)n(C)c12 [Compound 18] ; field requested: half-life at 1 μM
output: 4.13

----------
- Measurement Protocol: Liver microsomal stability in canine
- Format: in vitro ADME
- Experimental Parameters: dog; canine liver microsomes, 0.5 mg protein/mL, 1 μM compound, 37° C.
Metric: half-life at 1 μM (h)
Dear colleague, please return just the value in h, with no unit written.

input: Query (compound): `CCn1c(-c2nc3cc(C(=O)N4CCC[C@@H](N)C4)cc(OC)c3n2C)cc2ccoc21` ; field requested: half-life at 1 μM
output: 5.5

input: Query (compound): CCn1c(-c2nc3cc(C(=O)N4CCC[C@@H](N)C4)cc(OC)c3n2C)cc2cccnc21 [Compound GSK199, reference compound] ; field requested: half-life at 1 μM
output: 12.8

input: Query (compound): `CCn1c(-c2nc3cc(C(=O)N4CCC[C@@H](N)C4)cc(OC)c3n2C)cc2cc(C)sc21` ; field requested: half-life at 1 μM
output: 23.1

----------
I'd be grateful if you could share measured clearance for these entries.
- Measurement Protocol: Pharmacokinetics (PK) of the compound in rats
- Assay type: in vivo
- Experimental Parameters: rat, plasma; SD rats, IV 1 mg/kg, n = 3; read-out: Cl_obs iv (clearance) (converted)
- Protocol: Experimental Example 3: Pharmacokinetics (PK) of the Compound in Rats […] The concentration was calculated by Analyst 1.6.3 from AB Sciex. Parameters such as mean, standard deviation and coefficient of variation (excluding those output directly by Analyst 1.6.3) were calculated by Microsoft Excel. PK parameters were calculated by Pharsight Phoenix 6.1 software NCA (Tmax was in median).
Dear colleague, please return just the value in mL/min/kg, with no unit written.

input: Query (compound): `CCn1c(-c2nc3cc(C(=O)N4CCC[C@@H](N)C4)cc(OC)c3n2C)cc2cc(C)sc21` ; field requested: clearance
output: 43.7

input: Query (compound): `COc1cc(C(=O)N2CCC[C@@H](N)C2)cc2nc(-c3cc4ccsc4n3CC3CCC3)n(C)c12` ; field requested: clearance
output: 1.67

input: Query (compound): `COc1cc(C(=O)N2CCC[C@@H](N)C2)cc2nc(-c3cc4ccsc4n3CC(F)(F)F)n(C)c12` ; field requested: clearance
output: 15.3

input: Query (compound): `COc1cc(C(=O)N2CCC[C@@H](N)C2)cc2nc(-c3cc4cc(C)sc4n3CC3CC3)n(C)c12` ; field requested: clearance
output: 18

input: Query (compound): `COc1cc(C(=O)N2CCC[C@@H](N)C2)cc2nc(-c3cc4ccsc4n3CC(C)C)n(C)c12` ; field requested: clearance
output: 5

input: Query (compound): CCn1c(-c2nc3cc(C(=O)N4CCC[C@@H](N)C4)cc(OC)c3n2C)cc2cccnc21 [Compound GSK199, reference compound] ; field requested: clearance
output: 48.2

input: Query (compound): `COc1cc(C(=O)N2CCC[C@@H](N)C2)cc2nc(-c3cc4ccsc4n3CC3CC3)n(C)c12` ; field requested: clearance
output: 16.7

input: Query (compound): `CCn1c(-c2nc3cc(C(=O)N4CCC[C@@H](N)C4)cc(OC)c3n2C)cc2ccsc21` ; field requested: clearance
output: 13.2

----------
- Measurement Protocol: Liver microsomal stability in mouse
- Assay type: in vitro ADME
- Experimental Parameters: mouse liver microsomes, 0.5 mg protein/mL, 1 μM compound, 37° C.
Metric: microsomal CLint at 1 μM
# answer = value followed by unit

input: Query (compound): `COc1cc(C(=O)N2CCC[C@@H](N)C2)cc2nc(-c3cc4ccsc4n3CC3CC3)n(C)c12` ; field requested: microsomal CLint at 1 μM
output: 5.6 µL/min/mg

input: Query (compound): `COc1cc(C(=O)N2CCC[C@@H](N)C2)cc2nc(-c3cc4ccsc4n3CC(C)C)n(C)c12` ; field requested: microsomal CLint at 1 μM
output: 2 µL/min/mg

input: Query (compound): `COc1cc(C(=O)N2CCC[C@@H](N)C2)cc2nc(-c3cc4cc(C)sc4n3CC3CC3)n(C)c12` ; field requested: microsomal CLint at 1 μM
output: 5.8 µL/min/mg

input: Query (compound): `COc1cc(C(=O)N2CCC[C@@H](N)C2)cc2nc(-c3cc4ccsc4n3CC3CCC3)n(C)c12` ; field requested: microsomal CLint at 1 μM
output: 8.6 µL/min/mg

----------
I'd be grateful if you could share measured pIC50 for these entries.
- Measured Target: UniProt Q9UM07
- Sequence (Q9UM07 whole entry): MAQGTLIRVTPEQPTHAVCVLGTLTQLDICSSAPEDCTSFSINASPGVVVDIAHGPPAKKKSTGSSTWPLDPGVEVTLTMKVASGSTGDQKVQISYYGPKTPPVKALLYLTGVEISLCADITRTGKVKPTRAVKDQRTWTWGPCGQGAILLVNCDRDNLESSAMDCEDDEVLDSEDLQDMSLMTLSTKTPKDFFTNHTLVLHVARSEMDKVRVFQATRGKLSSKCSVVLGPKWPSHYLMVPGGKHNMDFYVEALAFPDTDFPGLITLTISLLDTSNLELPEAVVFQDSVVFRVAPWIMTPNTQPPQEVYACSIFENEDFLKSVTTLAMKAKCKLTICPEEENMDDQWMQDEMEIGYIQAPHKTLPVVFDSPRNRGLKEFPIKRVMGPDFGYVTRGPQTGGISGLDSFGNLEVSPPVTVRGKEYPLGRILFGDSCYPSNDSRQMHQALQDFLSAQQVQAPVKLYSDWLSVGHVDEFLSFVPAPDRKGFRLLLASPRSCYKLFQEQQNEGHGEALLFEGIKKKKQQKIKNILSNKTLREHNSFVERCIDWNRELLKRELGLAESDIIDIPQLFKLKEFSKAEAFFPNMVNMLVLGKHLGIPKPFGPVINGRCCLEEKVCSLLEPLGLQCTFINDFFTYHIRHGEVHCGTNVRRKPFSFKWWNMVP
As a rule, pIC50 stands for the negative log10 of the concentration, concentration in M.

input: Query (compound): `CCn1c(-c2nc3cc(C(=O)N4CCC[C@@H](N)C4)cc(OC)c3n2C)cc2ccoc21` ; field requested: pIC50
output: 6.46

input: Query (compound): CCn1c(-c2nc3cc(C(=O)N4CCC[C@@H](N)C4)cc(OC)c3n2C)cc2cccnc21 [Compound GSK199, reference compound] ; field requested: pIC50
output: 6.85

input: Query (compound): `COc1cc(C(=O)N2CCC[C@@H](N)C2)cc2nc(-c3cc4ccsc4n3CC3CCC3)n(C)c12` ; field requested: pIC50
output: 7.40

input: Query (compound): `COc1cc(C(=O)N2CCC[C@@H](N)C2)cc2nc(-c3cc4ccsc4n3CC(F)(F)F)n(C)c12` ; field requested: pIC50
output: 7.26

----------
I'd be grateful if you could share measured half-life for these entries.
- Measurement Protocol: Pharmacokinetics (PK) of the compound in rats
- Format: in vivo
- Experimental Parameters: rat, plasma; SD rats, IV 1 mg/kg, n = 3; read-out: tz1/2 iv (terminal half-life) (converted)
- Protocol: Experimental Example 3: Pharmacokinetics (PK) of the Compound in Rats […] The concentration was calculated by Analyst 1.6.3 from AB Sciex. Parameters such as mean, standard deviation and coefficient of variation (excluding those output directly by Analyst 1.6.3) were calculated by Microsoft Excel. PK parameters were calculated by Pharsight Phoenix 6.1 software NCA (Tmax was in median).
Dear colleague, please return just the value in h, with no unit written.

input: Query (molecule): COc1cc(C(=O)N2CCC[C@@H](N)C2)cc2nc(-c3cc4ccsc4n3CC3CC3)n(C)c12 [Compound 18] ; field requested: half-life
output: 3.92

input: Query (molecule): COc1cc(C(=O)N2CCC[C@@H](N)C2)cc2nc(-c3cc4ccsc4n3CC(F)(F)F)n(C)c12 [Compound 21] ; field requested: half-life
output: 6.93

input: Query (molecule): COc1cc(C(=O)N2CCC[C@@H](N)C2)cc2nc(-c3cc4cc(C)sc4n3CC3CC3)n(C)c12 [Compound 23] ; field requested: half-life
output: 7.9

input: Query (molecule): CCn1c(-c2nc3cc(C(=O)N4CCC[C@@H](N)C4)cc(OC)c3n2C)cc2cc(C)sc21 [Compound 9] ; field requested: half-life
output: 5.96

input: Query (molecule): COc1cc(C(=O)N2CCC[C@@H](N)C2)cc2nc(-c3cc4ccsc4n3CC3CCC3)n(C)c12 [Compound 22] ; field requested: half-life
output: 14.6

input: Query (molecule): CCn1c(-c2nc3cc(C(=O)N4CCC[C@@H](N)C4)cc(OC)c3n2C)cc2cccnc21 [Compound GSK199, reference compound] ; field requested: half-life
output: 1.63

input: Query (molecule): COc1cc(C(=O)N2CCC[C@@H](N)C2)cc2nc(-c3cc4ccsc4n3CC(C)C)n(C)c12 [Compound 20] ; field requested: half-life
output: 6.94

input: Query (molecule): CCn1c(-c2nc3cc(C(=O)N4CCC[C@@H](N)C4)cc(OC)c3n2C)cc2ccsc21 [Compound 3] ; field requested: half-life
output: 9.97
